Where these numbers come from: patent US20200017467A1

assay: Log P by HPLC on reversed phase columns (EEC directive 79/831 Annex V.A8); format: physicochemical; conditions: reversed phase HPLC columns; method [a]: LC-UV, acidic range, 0.1% formic acid in water and acetonitrile; compounds of formula (VII)
READOUT_LABEL: chromatographic logP

>>> result_number("O=C(Cn1cncn1)c1ccc(Oc2ccc(C(F)(F)F)nc2)nc1C(F)(F)F")
2.43
>>> result_number("O=C(Cn1cncn1)c1cnc(Oc2ccc(Cl)nc2)cc1C(F)(F)F")
2.21
>>> result_number("O=C(Cn1cncn1)c1ccc(Oc2ccc(Br)nc2)nc1C(F)(F)F")
2.23
